src = patent US20230271966A1

# TARGET_OF_ASSAY: Cereblon (CRBN) (Homo sapiens (Human))
# Sequence (Q96SW2 whole entry, species assumed): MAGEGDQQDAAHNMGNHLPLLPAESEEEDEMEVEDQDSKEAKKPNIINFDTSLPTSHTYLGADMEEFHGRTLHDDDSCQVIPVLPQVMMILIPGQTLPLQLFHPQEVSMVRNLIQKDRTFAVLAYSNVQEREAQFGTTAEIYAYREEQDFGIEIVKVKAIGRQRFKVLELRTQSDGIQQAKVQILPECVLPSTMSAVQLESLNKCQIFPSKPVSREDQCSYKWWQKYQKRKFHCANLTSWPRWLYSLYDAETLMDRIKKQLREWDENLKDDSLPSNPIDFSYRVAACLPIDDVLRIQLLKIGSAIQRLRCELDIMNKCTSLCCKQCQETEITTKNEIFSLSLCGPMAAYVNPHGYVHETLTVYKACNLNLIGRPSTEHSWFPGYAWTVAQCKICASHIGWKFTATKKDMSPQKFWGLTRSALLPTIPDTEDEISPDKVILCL
# ASSAY_SUMMARY: Isothermal titration calorimetry (ITC), Cereblon (CRBN)
# MEASUREMENT_CONTEXT: 20 μM protein titrated with 200 μM test compound; 20 mM HEPES pH 7.5, 150 mM NaCl, 0.5 mM TCEP, 2% DMSO, 25° C; single site model
pKd: −log10 of the molar value.
VALUE_KIND: pKd

- COMPOUND: "C[C@@]1(N2C(=O)c3ccc(-c4cn[nH]c4)c(O)c3C2=O)CCC(=O)NC1=O"
  pKd: "< 3.00"
- COMPOUND: "C[C@@]1(N2C(=O)c3ccc(C(=O)O)cc3C2=O)CCC(=O)NC1=O"
  pKd: "< 3.00"
- COMPOUND: "O=C1CCC(N2C(=O)c3ccc(-c4cn[nH]c4)c(O)c3C2=O)C(=O)N1 (stereo not shown)"
  pKd: 6.27

Next compound, pKd to be filled in.
Query: Item `C[C@@]1(N2C(=O)c3ccc(-c4n[nH]c(=S)o4)cc3C2=O)CCC(=O)NC1=O` has what recorded pKd?
Reply: < 3.00

----------
# maps each entry to its pKd
# TARGET_OF_ASSAY: PRPK (Homo sapiens (Human), UniProt Q96S44)
# Sequence (Q96S44 whole entry): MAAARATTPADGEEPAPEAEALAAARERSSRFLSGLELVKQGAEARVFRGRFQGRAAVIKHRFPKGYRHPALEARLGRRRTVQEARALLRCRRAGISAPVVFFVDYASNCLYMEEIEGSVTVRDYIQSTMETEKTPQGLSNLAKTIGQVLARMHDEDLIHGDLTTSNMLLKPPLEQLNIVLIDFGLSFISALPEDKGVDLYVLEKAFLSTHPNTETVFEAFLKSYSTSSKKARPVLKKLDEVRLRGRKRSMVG
# ASSAY_SUMMARY: Isothermal titration calorimetry (ITC), PRPK
# Assay type: binding
# MEASUREMENT_CONTEXT: 20 μM protein titrated with 200 μM test compound; 20 mM HEPES pH 7.5, 150 mM NaCl, 0.5 mM TCEP, 2% DMSO, 25° C; single site model
Quick note: pKd means taking -log10 of the concentration in moles per liter.

# annotated cases, reported pKd shown
- MOLECULE: "C[C@@]1(N2C(=O)c3ccc(-c4n[nH]c(=S)o4)cc3C2=O)CCC(=O)NC1=O"
  TARGET_OF_ASSAY: "PRPK (Homo sapiens (Human), UniProt Q96S44)"
  NUMERIC_READOUT: 6.44
- MOLECULE: "C[C@@]1(N2C(=O)c3ccc(C(=O)O)cc3C2=O)CCC(=O)NC1=O"
  TARGET_OF_ASSAY: "PRPK (Homo sapiens (Human), UniProt Q96S44)"
  NUMERIC_READOUT: 6.55

Next molecule, pKd to be filled in.
Query: Item O=C1CCC(N2C(=O)c3ccc(-c4cn[nH]c4)c(O)c3C2=O)C(=O)N1 (stereo not shown) has what recorded pKd?
Reply: 5.72
